- Test system: HCT-116
- experimentalProtocol: MTT cell viability assay, HCT-116 colorectal carcinoma cells
- Type: cell-based
- runConditions: Homo sapiens, 72 h
- Procedure: The four human tumour cell lines MCF-7, HCT-116, HL-60 and HeLa used in this study were obtained from the VACSERA (Giza, Egypt) cell culture unit that were originally acquired from ATCC (Manassas, VA, USA). […] The quinoline compounds were evaluated for antiproliferative effect using the MTT viability assay of four cancer cell lines (MCF-7, HCT-116, HL-60 and HeLa) and normal breast cells MCF-10A to calculate the relative IC50 values for each compound. […]
observationType: IC50 (µM)

Some solved entries appear below for comparison.
COc1cc(C2=NC(=Cc3cc4ccccc4nc3OC)C(=O)O2)cc(OC)c1OC [Compound 12a]	2.01
COc1cc(C2=NC(=Cc3cc4ccccc4nc3OC)C(=O)N2)cc(OC)c1OC [Compound 13a]	8.21
COc1cc(C2=NC(=Cc3cc4ccc(OC(C)C)cc4nc3OC)C(=O)O2)cc(OC)c1OC [Compound 12g]	7.88

a. COc1cc(C2=NC(=Cc3cc4ccc(OCc5ccccc5)cc4nc3OC)C(=O)N2)cc(OC)c1OC [Compound 13h]
b. COc1cc(C2=NC(=Cc3cc4ccc(OC(C)C)cc4nc3OC)C(=O)N2)cc(OC)c1OC [Compound 13g]
Which has the smaller recorded IC50, a or b ? Record your answer as the label of the chosen record.
b

a. COc1cc(C2=NC(=Cc3cc4cc(C)ccc4nc3OC)C(=O)N2)cc(OC)c1OC [Compound 13b]
b. COc1ccc2cc(C=C3N=C(c4cc(OC)c(OC)c(OC)c4)OC3=O)c(OC)nc2c1 [Compound 12f]
Which has the smaller recorded IC50, a or b ? Record your answer as the label of the chosen record.
b
(b: 0.066 µM, a: 0.173 µM)

* * *

- System: bovine brain tubulin
- experimentalProtocol: Tubulin polymerisation assay
- Format: biochemical
- runConditions: Tubulin was at 10 µM; read-out: Tubulin assembly IC50 (inhibition of tubulin polymerisation)
pIC50: −log10 of the molar value.
observationType: pIC50

Some solved entries appear below for comparison.
COc1cc(C2=NC(=Cc3cc4ccccc4nc3OC)C(=O)O2)cc(OC)c1OC [Compound 12a]	4.85
COc1cc(C2=NC(=Cc3cc4ccc(OC(C)C)cc4nc3OC)C(=O)O2)cc(OC)c1OC [Compound 12g]	5.08

P. COc1ccc2nc(OC)c(C=C3N=C(c4cc(OC)c(OC)c(OC)c4)NC3=O)cc2c1 [Compound 13e]
Q. COc1cc(C2=NC(=Cc3cc4ccc(C)cc4nc3OC)C(=O)N2)cc(OC)c1OC [Compound 13c]
Between P and Q , which one shows the larger pIC50 value? Record your answer as the label of the chosen record.
P

* * *

- Tested on: HL-60
- experimentalProtocol: MTT cell viability assay, HL-60 leukaemia cells
- Format: cell-based
- runConditions: Homo sapiens, 72 h, read-out: IC50 value, HL-60
observationType: IC50 (nM)

P. COc1cc(C2=NC(=Cc3cc4cc(C)ccc4nc3OC)C(=O)N2)cc(OC)c1OC [Compound 13b]
Q. COc1cc(C2=NC(=Cc3cc4ccccc4nc3OC)C(=O)O2)cc(OC)c1OC [Compound 12a]
Which has the smaller recorded IC50, P or Q ? Record your answer as the label of the chosen record.
P

* * *

observationType: melting point

COc1cc(C2=NC(=Cc3cc4cc(C)ccc4nc3OC)C(=O)N2)cc(OC)c1OC [Compound 13b]	223 to 225 °C
COc1cc(C2=NC(=Cc3cc4ccccc4nc3OC)C(=O)N2)cc(OC)c1OC [Compound 13a]	230 to 232 °C
COc1ccc2nc(OC)c(/C=C3\N=C(c4cc(OC)c(OC)c(OC)c4)OC3=O)cc2c1 [Compound 12e]	242 to 244 °C
COc1cc(C2=NC(=Cc3cc4cc(C)ccc4nc3OC)C(=O)O2)cc(OC)c1OC [Compound 12b]	218 to 220 °C
COc1ccc2cc(C=C3N=C(c4cc(OC)c(OC)c(OC)c4)NC3=O)c(OC)nc2c1 [Compound 13f]	241 to 243 °C
COc1cc(C2=NC(=Cc3cc4ccccc4nc3OC)C(=O)O2)cc(OC)c1OC [Compound 12a]	215 to 217 °C

Dear colleague, please send me the reported melting point for COc1ccc2cc(C=C3N=C(c4cc(OC)c(OC)c(OC)c4)OC3=O)c(OC)nc2c1 [Compound 12f] when you can.
221 to 223 °C

Dear colleague, please send me the reported melting point for COc1cc(C2=NC(=Cc3cc4ccc(OCc5ccccc5)cc4nc3OC)C(=O)O2)cc(OC)c1OC [Compound 12h] when you can.
247 to 249 °C

Dear colleague, please send me the reported melting point for COc1cc(C2=NC(=Cc3cc4cccc(C)c4nc3OC)C(=O)N2)cc(OC)c1OC [Compound 13d] when you can.
233 to 235 °C

Dear colleague, please send me the reported melting point for COc1cc(C2=NC(=Cc3cc4ccc(C)cc4nc3OC)C(=O)N2)cc(OC)c1OC [Compound 13c] when you can.
236 to 238 °C

Dear colleague, please send me the reported melting point for COc1cc(C2=NC(=Cc3cc4ccc(OC(C)C)cc4nc3OC)C(=O)O2)cc(OC)c1OC [Compound 12g] when you can.
227 to 229 °C

* * *

- Tested on: MCF-7
- experimentalProtocol: MTT cell viability assay, MCF-7 breast adenocarcinoma cells
- Type: cell-based
- runConditions: Homo sapiens, MCF7, 72 h, read-out: IC50 value, MCF-7
- Description: The four human tumour cell lines MCF-7, HCT-116, HL-60 and HeLa used in this study were obtained from the VACSERA (Giza, Egypt) cell culture unit that were originally acquired from ATCC (Manassas, VA, USA). […] The quinoline compounds were evaluated for antiproliferative effect using the MTT viability assay of four cancer cell lines (MCF-7, HCT-116, HL-60 and HeLa) and normal breast cells MCF-10A to calculate the relative IC50 values for each compound. […]
observationType: IC50 (nM)

Some solved entries appear below for comparison.
COc1cc(C2=NC(=Cc3cc4cc(C)ccc4nc3OC)C(=O)O2)cc(OC)c1OC [Compound 12b]	132
COc1cc(C2=NC(=Cc3cc4ccc(C)cc4nc3OC)C(=O)O2)cc(OC)c1OC [Compound 12c]	10
COc1cc(C2=NC(=Cc3cc4ccccc4nc3OC)C(=O)O2)cc(OC)c1OC [Compound 12a]	1710

P. COc1ccc2nc(OC)c(C=C3N=C(c4cc(OC)c(OC)c(OC)c4)NC3=O)cc2c1 [Compound 13e]
Q. COc1cc(C2=NC(=Cc3cc4ccc(OC(C)C)cc4nc3OC)C(=O)N2)cc(OC)c1OC [Compound 13g]
R. COc1cc(C2=NC(=Cc3cc4cccc(C)c4nc3OC)C(=O)O2)cc(OC)c1OC [Compound 12d]
Order the entries by their reported IC50, beginning at the minimum. Reply with the item labels sorted in the order that was asked for.
P, R, Q
(P: 42 nM, R: 154 nM, Q: 5560 nM)

I. COc1ccc2nc(OC)c(/C=C3\N=C(c4cc(OC)c(OC)c(OC)c4)OC3=O)cc2c1 [Compound 12e]
II. COc1cc(C2=NC(=Cc3cc4ccc(OCc5ccccc5)cc4nc3OC)C(=O)N2)cc(OC)c1OC [Compound 13h]
III. COc1cc(C2=NC(=Cc3cc4ccccc4nc3OC)C(=O)N2)cc(OC)c1OC [Compound 13a]
Rank by IC50 (largest to smallest). Reply with the item labels sorted in the order that was asked for.
II, III, I
(II: 1700 nM, III: 1030 nM, I: 56 nM)

* * *

- Tested on: HCT-116
- experimentalProtocol: MTT cell viability assay, HCT-116 colorectal carcinoma cells
- Type: cell-based
- runConditions: Homo sapiens, 72 h
observationType: IC50 (nM)

Some solved entries appear below for comparison.
COc1ccc2nc(OC)c(C=C3N=C(c4cc(OC)c(OC)c(OC)c4)NC3=O)cc2c1 [Compound 13e]	85
COc1ccc(/C=C\c2cc(OC)c(OC)c(OC)c2)cc1O	26

1. COc1cc(C2=NC(=Cc3cc4ccc(C)cc4nc3OC)C(=O)N2)cc(OC)c1OC [Compound 13c]
2. COc1cc(C2=NC(=Cc3cc4cc(C)ccc4nc3OC)C(=O)O2)cc(OC)c1OC [Compound 12b]
3. COc1cc(C2=NC(=Cc3cc4cccc(C)c4nc3OC)C(=O)N2)cc(OC)c1OC [Compound 13d]
4. COc1cc(C2=NC(=Cc3cc4ccc(OCc5ccccc5)cc4nc3OC)C(=O)O2)cc(OC)c1OC [Compound 12h]
5. COc1ccc2nc(OC)c(/C=C3\N=C(c4cc(OC)c(OC)c(OC)c4)OC3=O)cc2c1 [Compound 12e]
Rank by IC50 (largest to smallest). Reply with the item labels sorted in the order that was asked for.
4, 1, 2, 3, 5
